Molecular target: T1, Soluble CTLA-4-Ig (extracellular domain of human CTLA-4 fused to the Fc portion of human IgG1) (human, UniProt P16410 36-161, FITC-conjugated in the FACS binding assays)
T1 construct: extracellular domain; bought from R&D Systems; also called sCTLA-4-Ig; CTLA-4-Ig Fc; not shown: Fc portion of human IgG1
T1 sequence (P16410 36-161): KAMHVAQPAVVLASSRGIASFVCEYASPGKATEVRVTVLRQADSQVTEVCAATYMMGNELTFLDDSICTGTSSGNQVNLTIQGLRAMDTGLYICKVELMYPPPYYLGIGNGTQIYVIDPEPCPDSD
Assay: competitive FACS on transfected cells, FITC-sCTLA-4-Ig with biotin-sCD28-Ig; grade 0-2 of CTLA-4/CD28 ratio vs WT hB7-1
Reported Binding Score is given for each of the following binders.
// no unit, no text: just the number

Round 1 CTLA4BP-27 (ligand, also called R1-27; R1 CTLA-4BP-27) VIHVTKEVKEVATLSCGLNVSVEELAQTRIYWQKEKKMVLTMMSGDMNIWPEYKNRTIFDITNNLSIVILALRPSDEGTYECVVLKYEKDAFKREHLAEVMLSVKADFPTPSISDFEIPPSNIRRIICSTSGGFPEPHLSWLENGEELNAINTTVSQDPETELYTVSSKLDFNMTANHSFVCLIKYGHLRVNQTFNWNTPKQEHFPDNLLPSWAITLISVNGIFVICCLTYCFAPRCRERRRNETLRRESVRPV    1
Round 2 CTLA4BP 5x5-h12 (ligand) VIHVTKKVKEVATLSCGHNVSVEELAQTRIHWQKEKKMVLTMMSGDMNIWPEYKNRTIFDITNNLSIVILALRPSDEGTYECVVLKYEKDAFKREHLAEVMLSVKADFPTPSISDFEIPPSNIRRIICSTSGGFPEPHLSWLENGEELNAINTTVSQDPGTELYTVSSKLDFNMTTDRSFVCLIKYGHLRVNQTFNWNTPKQEHFPDNLLPSWAITLISVNGIFVICCLTYCFAPRCRERRRNGRLRRESVRPV    1

QUERY: GET /values?readout=Binding Score&item= Round 2 CTLA4BP 5x5-c10 (ligand) VIHVTKEVKEVATLSCGHNVSVEELAQTRIYWQKEKKMVLTMMSGDMNIWPEYKNRTIFDITNNLSIVILALRPSDEGTYECVVLEYEKDAFKREHLAEVTLSVKADFPTPSITDFEIPPSNIRRIICSTSGGFPEPHLFWLENGEELNAISTTVSQDPETELYAVSSKLDFNMTTNHSFMCLIKYGHLRVNQTFNWNTTKQEHFPDNLLPSWAITLISVNGIFVICCLTYCFAPRCRERRRNERLRRESVHPV
RESULT: 1
